# Tested System: T1, human OPGbp [143-317] (human, UniProt O14788 143-317)
# T1 construct: also called OPGL
# T1 sequence (looked up): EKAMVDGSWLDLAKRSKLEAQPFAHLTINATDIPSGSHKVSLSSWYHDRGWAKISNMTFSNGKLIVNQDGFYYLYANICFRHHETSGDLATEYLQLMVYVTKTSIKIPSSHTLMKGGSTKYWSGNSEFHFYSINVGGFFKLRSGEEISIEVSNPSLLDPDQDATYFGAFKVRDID
# Method: SPR (BIAcore), immobilized OPGbp [143-317]

Binder	kon (M⁻¹ s⁻¹)
“AT” antibody (full-length human IgG1) (antibody, V domains shown, Expressed in CHO cells; also called “AT” Ab; not shown: human IgG1 CH1, hinge, CH2 and CH3) VH: QVQLVQSGAEVRKPGASVKVSCKASGYDFSNYAIHWVRQAPGQRLEWMGWINAGNGNTKFSQKFQGRITVTRDTAASTAYMELRSLRSEDTAVYYCARDSSNMVRGIIIAYYFDYWGQGTLVTVSS VL: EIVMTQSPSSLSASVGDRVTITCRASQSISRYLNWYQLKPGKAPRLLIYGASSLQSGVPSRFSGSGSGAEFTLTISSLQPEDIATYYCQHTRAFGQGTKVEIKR	1.7e+06
“AT” antibody variant S96A, S97A (heavy chain CDR3) (antibody, name in Kabat numbering, V domains shown, not shown: human IgG1 CH1, hinge, CH2 and CH3) VH: QVQLVQSGAEVRKPGASVKVSCKASGYDFSNYAIHWVRQAPGQRLEWMGWINAGNGNTKFSQKFQGRITVTRDTAASTAYMELRSLRSEDTAVYYCARDAANMVRGIIIAYYFDYWGQGTLVTVSS VL: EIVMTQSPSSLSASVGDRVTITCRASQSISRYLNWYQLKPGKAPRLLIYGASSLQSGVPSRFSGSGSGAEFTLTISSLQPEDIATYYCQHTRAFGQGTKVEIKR	317000
